Catalogue of log10 of Kd values
- assay target: BiP (UniProt P20029 20-655)
- Sequence (P20029 20-655): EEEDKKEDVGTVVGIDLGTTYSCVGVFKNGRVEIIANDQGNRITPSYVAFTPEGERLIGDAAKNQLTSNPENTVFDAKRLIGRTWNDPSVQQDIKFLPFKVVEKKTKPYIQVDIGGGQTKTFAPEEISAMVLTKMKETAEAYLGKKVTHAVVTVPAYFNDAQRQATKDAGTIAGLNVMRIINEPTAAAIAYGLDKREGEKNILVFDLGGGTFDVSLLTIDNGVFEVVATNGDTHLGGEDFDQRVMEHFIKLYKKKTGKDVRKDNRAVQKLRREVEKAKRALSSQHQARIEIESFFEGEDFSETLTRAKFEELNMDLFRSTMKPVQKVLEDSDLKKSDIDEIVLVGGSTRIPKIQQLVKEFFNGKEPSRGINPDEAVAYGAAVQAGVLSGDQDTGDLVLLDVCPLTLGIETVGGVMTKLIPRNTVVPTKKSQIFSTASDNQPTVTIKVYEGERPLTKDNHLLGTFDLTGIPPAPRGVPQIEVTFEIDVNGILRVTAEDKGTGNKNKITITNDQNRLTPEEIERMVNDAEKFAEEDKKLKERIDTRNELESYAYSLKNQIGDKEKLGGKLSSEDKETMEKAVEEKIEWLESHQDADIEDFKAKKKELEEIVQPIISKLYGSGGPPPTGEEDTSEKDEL
- procedure details: fluorescence polarisation
Ends that are not written are not given here. * marks the point of attachment. FITC = O=C1OC2(c3ccc(O)cc3Oc3cc(O)ccc32)c2ccc(NC(=S)*)cc21; Ahx = NCCCCCC(=O)O
parameter measured: log10 of Kd (log10 of the value in nM)

INSERT INTO assay_data (binder, parameter_measured, readout_value) VALUES
  ('{FITC-Ahx}-EAKRHRPLIVLPPKDPAHG [FITC-E-peptide 151-169]', 'log10 of Kd', 4.18),
  ('RDVC(FITC‑maleimide)TSQAVLPDDFPRYPVGKFFQYDTWRQSAGRLRRGLPALLRARRG (domain or fragment) [FITC-E-peptide 92-139]', 'log10 of Kd', 2.72),
  ('{FITC-Ahx}-DDFPRYPVGKFFQYDTWR [FITC-E-peptide 103-120]', 'log10 of Kd', 2.98),
  ('{FITC-Ahx}-QSAGRLRRGLPALLRARRG [FITC-E-peptide 121-139]', 'log10 of Kd', 3.72),
  ('RDVC(FITC‑maleimide)TSQAVLPDDFPRYPVGKFFQYDTWR (domain or fragment) [FITC-E-peptide 92-120]', 'log10 of Kd', 2.83);
